- Assayed Target: T1, IL-11R on STAT3 Reporter (Luciferase)-HEK293 cells (UniProt Q14626 23-422)
- T1 sequence (looked up): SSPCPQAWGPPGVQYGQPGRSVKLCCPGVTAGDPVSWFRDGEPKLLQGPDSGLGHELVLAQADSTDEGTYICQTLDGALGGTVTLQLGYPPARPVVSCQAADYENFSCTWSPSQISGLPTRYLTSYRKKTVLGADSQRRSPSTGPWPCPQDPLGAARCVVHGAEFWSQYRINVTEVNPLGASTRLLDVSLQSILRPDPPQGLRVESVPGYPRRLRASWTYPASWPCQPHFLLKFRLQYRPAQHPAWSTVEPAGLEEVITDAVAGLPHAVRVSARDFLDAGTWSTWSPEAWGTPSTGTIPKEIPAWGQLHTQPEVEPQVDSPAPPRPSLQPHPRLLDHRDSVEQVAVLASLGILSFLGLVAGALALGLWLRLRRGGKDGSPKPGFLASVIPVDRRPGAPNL
- Protocol Details: cell-based or functional assay
Readout Kind: IC50, STAT3 luciferase reporter assay (HEK293), inhibiting IL-11, Mean (µg/mL)
The answer is to be given in µg/mL; state only the numeric part.

Provide only the value of recorded IC50, STAT3 luciferase reporter assay (HEK293), inhibiting IL-11, Mean for mAb15 (antibody, V domains shown, Expressed as human IgG4 (S228P EU)) VH: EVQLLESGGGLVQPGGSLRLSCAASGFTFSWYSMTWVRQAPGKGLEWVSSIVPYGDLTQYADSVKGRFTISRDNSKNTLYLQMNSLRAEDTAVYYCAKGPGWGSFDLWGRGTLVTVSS VL: DIQMTQSPSSLSASVGDRVTITCQASQDINNYLNWYQQKPGKAPKLLIYDASNLQTGVPSRFSGSGSGTDFTFTISSLQPEDIATYYCQQHETQTPTFGPGTKVDIK
0.36

Provide only the value of recorded IC50, STAT3 luciferase reporter assay (HEK293), inhibiting IL-11, Mean for mAb5 (antibody, V domains shown, Expressed as human IgG4 (S228P EU); also called mAb5 IL11RA Ab) VH: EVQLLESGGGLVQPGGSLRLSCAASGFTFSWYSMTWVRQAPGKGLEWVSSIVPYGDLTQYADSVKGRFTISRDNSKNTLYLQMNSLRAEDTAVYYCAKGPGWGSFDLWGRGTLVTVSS VL: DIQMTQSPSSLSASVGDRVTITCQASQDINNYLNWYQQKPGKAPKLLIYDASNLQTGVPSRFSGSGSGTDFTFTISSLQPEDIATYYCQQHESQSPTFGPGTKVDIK
0.17
